- TARGET_DESC: c-Met (Homo sapiens, UniProt P08581)
- Construct: Kinases are expressed as either kinase domains or full length constructs; made in house
- Sequence (P08581 25-1390): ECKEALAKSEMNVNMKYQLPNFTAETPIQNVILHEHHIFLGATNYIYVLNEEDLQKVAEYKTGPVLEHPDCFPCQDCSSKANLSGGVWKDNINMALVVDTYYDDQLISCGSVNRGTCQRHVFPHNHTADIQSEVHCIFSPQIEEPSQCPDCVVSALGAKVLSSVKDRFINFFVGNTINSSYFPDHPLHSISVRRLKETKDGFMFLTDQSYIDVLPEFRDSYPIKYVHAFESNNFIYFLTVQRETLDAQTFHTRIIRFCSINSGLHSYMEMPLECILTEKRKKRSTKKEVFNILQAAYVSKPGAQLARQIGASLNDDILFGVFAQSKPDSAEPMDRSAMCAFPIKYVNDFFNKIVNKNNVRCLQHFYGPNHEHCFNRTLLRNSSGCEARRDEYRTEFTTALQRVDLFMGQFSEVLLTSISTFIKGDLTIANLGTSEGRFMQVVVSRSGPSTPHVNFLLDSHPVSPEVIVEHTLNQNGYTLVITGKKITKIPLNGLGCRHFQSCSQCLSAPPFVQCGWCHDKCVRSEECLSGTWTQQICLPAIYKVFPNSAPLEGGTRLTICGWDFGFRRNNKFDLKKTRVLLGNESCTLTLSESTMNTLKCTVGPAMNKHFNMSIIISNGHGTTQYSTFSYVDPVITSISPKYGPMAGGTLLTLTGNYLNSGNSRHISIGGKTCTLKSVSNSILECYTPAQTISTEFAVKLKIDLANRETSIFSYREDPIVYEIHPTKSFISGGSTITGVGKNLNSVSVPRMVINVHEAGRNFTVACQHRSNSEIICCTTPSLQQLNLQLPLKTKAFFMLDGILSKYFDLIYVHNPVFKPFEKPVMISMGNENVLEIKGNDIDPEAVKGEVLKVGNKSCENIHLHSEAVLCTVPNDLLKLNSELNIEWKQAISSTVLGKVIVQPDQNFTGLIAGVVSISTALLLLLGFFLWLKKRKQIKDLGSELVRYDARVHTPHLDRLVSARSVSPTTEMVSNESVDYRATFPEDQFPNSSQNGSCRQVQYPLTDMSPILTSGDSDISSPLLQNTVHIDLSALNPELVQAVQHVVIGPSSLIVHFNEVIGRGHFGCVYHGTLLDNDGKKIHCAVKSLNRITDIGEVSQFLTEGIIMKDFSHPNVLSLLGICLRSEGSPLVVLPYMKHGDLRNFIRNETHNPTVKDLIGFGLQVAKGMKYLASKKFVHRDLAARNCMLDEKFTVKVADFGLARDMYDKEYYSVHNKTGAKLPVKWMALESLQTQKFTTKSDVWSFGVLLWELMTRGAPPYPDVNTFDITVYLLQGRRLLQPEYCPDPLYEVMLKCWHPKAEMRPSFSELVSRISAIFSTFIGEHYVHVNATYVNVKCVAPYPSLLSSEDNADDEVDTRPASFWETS
- ASSAY_PROCEDURE: Kinase inhibition assay (33P transfer), c-Met
- Type: biochemical
- SETUP_CONDITIONS: Table 2, kinase inhibition class; read-out: Met-1
pIC50: −log10 of the molar value.
OBSERVED_PROPERTY: pIC50

MOLECULE	OBSERVED_PROPERTY	OBS_VALUE
COc1ccc(Nc2ncnc(Nc3ccc(OCc4ccccc4)cc3)n2)cc1 [Compound 161]	pIC50	< 4.95
COc1cc(Nc2ncnc(-n3c(NCc4ccc(C(F)(F)F)cc4)nc4ccccc43)n2)cc(OC)c1OC [Compound 598]	pIC50	< 5.09
O=c1[nH]c2ccccc2n1-c1ncnc(Nc2cccc([N+](=O)[O-])c2)n1 [Compound 467]	pIC50	< 4.89
COc1cc(Nc2ncnc(NC(=O)Nc3ccccc3)n2)cc(OC)c1OC [Compound 852]	pIC50	5.05 to 5.22
COC(=O)c1sccc1Nc1ncnc(N2CCCc3cc(C)ccc32)n1 [Compound 767]	pIC50	< 4.93
CN(c1cccc(Cl)c1)c1ncnc(NC2CCN(Cc3ccccc3)CC2)n1 [Compound 752]	pIC50	< 4.96
CC(=O)NS(=O)(=O)c1ccc(Nc2ncnc(-n3c(N)nc4ccccc43)n2)cc1 [Compound 440]	pIC50	5.25 to 6.03
COc1ccc(Nc2ncnc(N3CCCc4ccc(C)cc43)n2)cc1OC [Compound 567]	pIC50	5.20 to 5.97
CC(=O)NCc1ccc(Nc2ncnc(Nc3cc(-c4ccco4)n[nH]3)n2)cc1 [Compound 443]	pIC50	5.21 to 5.99
COc1cc(Nc2ncnc(Nc3cc(-c4ccccc4)nn3C)n2)cc(OC)c1OC [Compound 394]	pIC50	< 4.98
COc1ccc(Nc2ncnc(-n3c(N)nc4ccccc43)n2)cn1 [Compound 648]	pIC50	< 4.87
COc1ccc(Nc2ncnc(Nc3cccc(C)c3)n2)cc1OC [Compound 108]	pIC50	< 4.87
COc1cc(Nc2ncnc(Nc3ccc4cn[nH]c4c3)n2)cc(OC)c1OC [Compound 70]	pIC50	< 4.94
COc1ccc(Nc2ncnc(Nc3cc(-c4ccco4)n[nH]3)n2)cc1OC [Compound 337]	pIC50	> 5.98
Fc1ccc(Nc2ncnc(Nc3ccc4[nH]ncc4c3)n2)cc1Cl [Compound 717]	pIC50	5.17 to 5.95
COc1cc(Nc2ncnc(Nc3ccc(Cl)cc3)n2)cc(OC)c1OC [Compound 72]	pIC50	4.94 to 5.04
COc1cc(Nc2ncnc(Nc3ccc(Br)cc3)n2)cc(OC)c1OC [Compound 82]	pIC50	< 4.98
FC(F)C(F)(F)Oc1cccc(Nc2ncnc(-c3ccnc(N4CCCCC4)c3)n2)c1 [Compound 346]	pIC50	< 5.00
COc1cc(Nc2ncnc(Nc3cccc(OCc4ccccc4)c3)n2)cc(OC)c1OC [Compound 73]	pIC50	< 5.01
COc1cc(Nc2ncnc(Nc3ccc(C(N)=O)cc3)n2)cc(OC)c1OC [Compound 33]	pIC50	< 4.94
COc1cc(Nc2ncnc(-n3c(NCc4ccc5c(c4)OCO5)nc4ccccc43)n2)cc(OC)c1OC [Compound 595]	pIC50	< 5.07
CN(c1cccc(Cl)c1)c1ncnc(Nc2ccc(C(F)(F)F)cc2)n1 [Compound 744]	pIC50	< 4.93
COc1cc(Nc2ncnc(Nc3ccc(Cl)cc3F)n2)cc(OC)c1OC [Compound 306]	pIC50	5.06 to 5.23
CC(C)(C)c1cc(Nc2ncnc(Nc3cccc(C(N)=O)c3)n2)[nH]n1 [Compound 500]	pIC50	5.17 to 5.94
COc1ccc(CNc2nc3ccccc3n2-c2ncnc(Nc3cc(OC)c(OC)c(OC)c3)n2)cc1OC [Compound 596]	pIC50	< 5.08
N#Cc1cccc(Nc2ncnc(-n3c(=O)[nH]c4ccccc43)n2)c1 [Compound 486]	pIC50	< 4.86
Brc1cccc(Nc2ncnc(Nc3cccc(Br)c3)n2)c1 [Compound 539]	pIC50	4.97 to 5.08
COc1cc2ccn(-c3ncnc(Nc4cc(OC)c(OC)c(OC)c4)n3)c2cc1OC [Compound 239]	pIC50	< 4.99
COc1cc(Nc2ncnc(Nc3nnc(-c4ccccc4)[nH]3)n2)cc(OC)c1OC [Compound 311]	pIC50	5.24 to 6.02
COCCOc1ccc(Nc2ncnc(Nc3cc(-c4ccco4)n[nH]3)n2)cc1OCCOC [Compound 328]	pIC50	> 6.07
COc1ccc(CNc2nc3ccccc3n2-c2ncnc(Nc3cc(OC)c(OC)c(OC)c3)n2)cc1 [Compound 1037]	pIC50	< 5.06
COc1cc(Nc2ncnc(-n3c(NCc4nc5ccccc5[nH]4)nc4ccccc43)n2)cc(OC)c1OC [Compound 954]	pIC50	5.07 to 5.17
COc1cc(Nc2ncnc(-n3c(N)nc4ccccc43)n2)cc(OC)c1OC [Compound 289]	pIC50	5.21 to 5.99
COc1cc(Nc2ncnc(-n3c(NCCc4cccnc4)nc4ccccc43)n2)cc(OC)c1OC [Compound 947]	pIC50	< 5.04
CCN(c1ccccc1)c1ncnc(Nc2cc(OC)c(OC)c(OC)c2)n1 [Compound 536]	pIC50	> 5.98
